Known inhibition of a selection of molecules
Test system: Methionine sulfoxide reductase A (Bos taurus)
Experiment: bovine MsrA enzyme inhibitors, primary screen, biochemical, absorbance, HTS (AID 651718);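 further: 0% = vehicle wells with enzyme and 100% = reference inhibitor wells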
Conditions: purified bovine MsrA, absorbance read-out; at 15.5 µM; active compounds read high
In all, about 360,000 compounds went through this assay and about 2,700 (0.75%) were called active. What follows is part of a selection rich in actives, with near analogues and random picks from the rest.
parameter: inhibition (%)

[[record]]
molecule = "COC(=O)C1=C(C)N(Cc2ccc(C(F)(F)F)cc2)C(=NCc2ccc(C(F)(F)F)cc2)NC1c1cccc(Cl)c1 (stereo not drawn)"
test_target = "Methionine sulfoxide reductase A (Bos taurus)"
measurement = -2.13

[[record]]
molecule = "CNS(=O)(=O)c1ccc(NC(=O)C2CC(=O)N(c3ccc(Cl)cc3)C2)cc1 (stereo not drawn)"
test_target = "Methionine sulfoxide reductase A (Bos taurus)"
measurement = 1.4

[[record]]
molecule = "CC1CCCN(c2cccc3c2S(=O)(=O)N(Cc2ccc(F)cc2)[C@@H](C)[C@H](c2ccccc2)O3)C1 (stereo partly drawn)"
test_target = "Methionine sulfoxide reductase A (Bos taurus)"
measurement = 0.93

[[record]]
molecule = "COc1ccc(C2C(C(C)=O)=C(O)C(=O)N2CCc2c[nH]c3ccccc23)cc1 (stereo not drawn)"
test_target = "Methionine sulfoxide reductase A (Bos taurus)"
measurement = 2.78

[[record]]
molecule = "CCOC(=O)Cn1c2c(n(-c3ccc(F)cc3)c1=O)C=C(c1ccccc1)[C@@H](C)C(C(=O)N(C)C1CCCCC1)=C2"
test_target = "Methionine sulfoxide reductase A (Bos taurus)"
measurement = -0.4

[[record]]
molecule = "CC(=O)c1ccc(N2CCN(CC(=O)Nc3ccccc3N3CCOCC3)CC2)cc1"
test_target = "Methionine sulfoxide reductase A (Bos taurus)"
measurement = 4.88

[[record]]
molecule = "CSc1ccc(Oc2cccc3c2S(=O)(=O)N([C@H](C)c2ccccc2)C[C@@H](COCc2ccccc2)O3)cc1C"
test_target = "Methionine sulfoxide reductase A (Bos taurus)"
measurement = 0.09

[[record]]
molecule = "COC(=O)C(C(=O)OC)c1ccccc1NS(=O)(=O)c1cccc2ccccc12"
test_target = "Methionine sulfoxide reductase A (Bos taurus)"
measurement = -0.65


----------
Tested on: Methionine sulfoxide reductase A (Bos taurus)
Assay: bovine MsrA enzyme inhibitors, primary screen, biochemical, absorbance, HTS (AID 651718);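 further: 0% = vehicle wells with enzyme and 100% = reference inhibitor wells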
Conditions: purified bovine MsrA, absorbance read-out; at 15.5 µM; active compounds read high
Hit rate of the full screen: of about 360,000 compounds, about 2,700 (0.75%) were called active. The sample as a whole holds a higher share of actives than the screen did.
parameter: inhibition (%)

[[record]]
smiles_str = "COc1cccc(NC(=O)N(C)C[C@@H]2OCc3cn(nn3)CCCC(=O)N([C@@H](C)CO)C[C@H]2C)c1"
output_unit = "%"
measurement = 0.43

[[record]]
smiles_str = "CCc1ccc(Oc2coc3cc(OC(=O)c4cc5ccccc5oc4=O)ccc3c2=O)cc1"
output_unit = "%"
measurement = 1.04

[[record]]
smiles_str = "O=C(NCc1ccccc1)[C@H]1CCCN1C(=O)[C@H]1CCCN1C(=O)c1cc(F)cc(F)c1"
output_unit = "%"
measurement = 0.16

[[record]]
smiles_str = "Cc1ccc(C)c2[nH]c(=O)c(CN(Cc3cccnc3)C(=S)NCc3ccco3)cc12"
output_unit = "%"
measurement = 0.59

[[record]]
smiles_str = "CCOc1cc(/C=N/NC(=O)c2ccc(CSc3nncn3C)cc2)ccc1OCC(=O)N1CCOCC1"
output_unit = "%"
measurement = 4.92

[[record]]
smiles_str = "Cc1ccc(S(=O)(=O)NCCC(c2ccccc2)c2ccccc2)cc1C(=O)O"
output_unit = "%"
measurement = 0

[[record]]
smiles_str = "CN(C)C(=O)N1CCN(C(=O)[C@@H](Cc2ccccc2)NC(=O)[C@H]2O[C@@H](n3ccc(N)nc3=O)[C@H](O)[C@@H]2O)CC1"
output_unit = "%"
measurement = 0.17

[[record]]
smiles_str = "CCOc1cc(/C=N/NC(=O)c2cccc(S(=O)(=O)N3CCOCC3)c2)ccc1OCC(=O)N(C)C"
output_unit = "%"
measurement = 4.25

[[record]]
smiles_str = "CC(C)(C)n1nc(C2CC2)c(Br)c1NC(=O)c1ccccc1F"
output_unit = "%"
measurement = -0.05

[[record]]
smiles_str = "O=C(O)c1ccc(F)c(S(=O)(=O)Nc2ccccc2)c1"
output_unit = "%"
measurement = -0.45

[[record]]
smiles_str = "O=C(C(=O)N1CCC(CNS(=O)(=O)Cc2ccccc2)CC1)c1cc2ccccc2o1"
output_unit = "%"
measurement = 1.99

[[record]]
smiles_str = "CC(C)C[C@H]1CN([C@@H](Cc2ccccc2)CN2CCC[C@@H]2CN2C(=O)C(=O)NC[C@@H]2Cc2ccc(O)cc2)C(=O)C(=O)N1CCc1ccccc1"
output_unit = "%"
measurement = -0.32

[[record]]
smiles_str = "Cc1cc(C(C)(C)C)cc(S(=O)(=O)Nc2ccc(C(=O)O)cc2)c1C"
output_unit = "%"
measurement = 1.5

[[record]]
smiles_str = "NC(=O)c1ncn([C@@H]2O[C@H](C(=O)O)[C@@H](O)[C@H]2O)n1"
output_unit = "%"
measurement = 0.08

[[record]]
smiles_str = "COc1ccccc1-c1ccc([C@@H]2C[C@H]3[C@H](CON3C)CN2S(=O)(=O)c2cc(Cl)cc(Cl)c2)cc1"
output_unit = "%"
measurement = -0.24

[[record]]
smiles_str = "Cc1ccc2nc(SCc3nnc(-c4ccccc4[N+](=O)[O-])o3)c(C#N)cc2c1"
output_unit = "%"
measurement = -0.69

[[record]]
smiles_str = "CC(=O)c1ccc(S(=O)(=O)NCC2CCN(C(=O)C(=O)c3cccs3)CC2)cc1"
output_unit = "%"
measurement = 0.56

[[record]]
smiles_str = "CC(C)CC(CC(C)C)=NNC(=O)c1ccc(CSc2nncn2C)cc1"
output_unit = "%"
measurement = -0.77

